test: FA direct binding of antibiotics/compounds to NBD-lipid II probe; details: antibiotic binding to probe 0.33 µM, 10 mM Tris-HCl pH 7.5, 3% DMSO
pKd: −log10 of the molar value.
ASSAY_ENDPOINT: pKd

> print(dat)
                                  substance  result.value
1  nisin (ITSISLCTPGCKTGALMGCNMKTATCHCSIHVSK; not fully specified; Lantibiotic nisin-A; UniProt P13068 24-57, looked up)          6.52

Origin of the recorded values: paper PMC7156629
